# tgt: T1, human IL-23R endogenously expressed on DB cells (human, UniProt Q5VWK5 24-629)
# T1 sequence (looked up): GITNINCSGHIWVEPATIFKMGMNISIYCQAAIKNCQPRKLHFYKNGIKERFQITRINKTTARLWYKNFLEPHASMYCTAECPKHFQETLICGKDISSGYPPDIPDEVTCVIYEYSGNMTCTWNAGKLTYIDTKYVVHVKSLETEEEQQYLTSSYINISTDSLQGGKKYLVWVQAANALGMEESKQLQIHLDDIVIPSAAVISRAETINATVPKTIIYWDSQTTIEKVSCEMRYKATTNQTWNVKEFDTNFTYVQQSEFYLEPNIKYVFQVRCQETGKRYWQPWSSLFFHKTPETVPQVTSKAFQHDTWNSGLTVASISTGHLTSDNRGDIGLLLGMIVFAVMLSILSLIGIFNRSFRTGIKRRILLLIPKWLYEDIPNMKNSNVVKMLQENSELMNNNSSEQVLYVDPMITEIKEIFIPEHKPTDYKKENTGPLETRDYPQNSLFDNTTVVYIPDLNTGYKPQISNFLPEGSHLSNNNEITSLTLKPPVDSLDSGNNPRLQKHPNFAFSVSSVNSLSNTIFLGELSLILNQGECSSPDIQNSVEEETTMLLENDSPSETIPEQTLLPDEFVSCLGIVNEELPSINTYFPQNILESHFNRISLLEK
# assaySummary: cell-based or functional assay
*1 amine or outer side, *2 acyl side, *3 side chain or, on linkers, in order; H or OH if unused. Bridges are numbered along the chain shown (N, C = ends). [ ]: non-standard residue; d: D form. 4‑Aminomethyl‑phenylacetyl = 4-aminomethyl-phenylacetyl unit, its amine closes the lactam, O=C(Cc1ccc(CN[*:1])cc1)[*:2]; 2Nal = N[C@@H](Cc1ccc2ccccc2c1)C(=O)O; AEF = NCCOc1ccc(C[C@H](N)C(=O)O)cc1; αMeL = CC(C)C[C@](C)(N)C(=O)O; Dab = NCC[C@H](N)C(=O)O
experimentalReadout: hIL-23 (pSTAT3) antagonist IC50 (nM)
Write the value in nM as a bare number.

[4‑Aminomethyl‑phenylacetyl]SEWQ[Dab][AEF][2Nal][αMeL]E[Dab][dH]-NH2 (lactam N-10, 3-6; SMILES CC(C)C[C@]1(C)NC(=O)[C@H](Cc2ccc3ccccc3c2)NC(=O)[C@H](Cc2ccc(OCCN)cc2)NC(=O)[C@@H]2CCNC(=O)CC[C@H](NC(=O)[C@H](CO)NC(=O)Cc3ccc(cc3)CNC(=O)CC[C@@H](C(=O)N[C@@H](CCN)C(=O)N[C@H](Cc3c[nH]cn3)C(N)=O)NC1=O)C(=O)N[C@@H](Cc1c[nH]c3ccccc13)C(=O)N[C@@H](CCC(N)=O)C(=O)N2) [Compound 13] :: 6.8
[4‑Aminomethyl‑phenylacetyl]SCWQC[AEF][2Nal][αMeL]E[dR]-NH2 (lactam N-10; bridge 3-6; not fully specified (bridges); printed as [4-Aminomethyl-phenylacetyl](1c)*SC(2a)WQC(2a)[Y(2-aminoethoxy)][2-Nal][2-Me-Leu]E(1c)[{d}R]-[NH2], Y = Y(2-aminoethoxy), R = D-Arg) [Ref 80] :: 11

Qu. Data request, read-out hIL-23 (pSTAT3) antagonist IC50, for H-DESCWQCWWLKR-NH2 (lactam 2-11; bridge 4-7; not fully specified (bridges)) [Ref 4]
Ans. 850
